List of pIC50 values.
- system_under_test: full-length beta-Catenin (Uniprot ID P35222) (Homo sapiens)
- Construct: 10 nM full-length beta-Catenin (Uniprot ID P35222)
- Sequence (P35222 whole entry): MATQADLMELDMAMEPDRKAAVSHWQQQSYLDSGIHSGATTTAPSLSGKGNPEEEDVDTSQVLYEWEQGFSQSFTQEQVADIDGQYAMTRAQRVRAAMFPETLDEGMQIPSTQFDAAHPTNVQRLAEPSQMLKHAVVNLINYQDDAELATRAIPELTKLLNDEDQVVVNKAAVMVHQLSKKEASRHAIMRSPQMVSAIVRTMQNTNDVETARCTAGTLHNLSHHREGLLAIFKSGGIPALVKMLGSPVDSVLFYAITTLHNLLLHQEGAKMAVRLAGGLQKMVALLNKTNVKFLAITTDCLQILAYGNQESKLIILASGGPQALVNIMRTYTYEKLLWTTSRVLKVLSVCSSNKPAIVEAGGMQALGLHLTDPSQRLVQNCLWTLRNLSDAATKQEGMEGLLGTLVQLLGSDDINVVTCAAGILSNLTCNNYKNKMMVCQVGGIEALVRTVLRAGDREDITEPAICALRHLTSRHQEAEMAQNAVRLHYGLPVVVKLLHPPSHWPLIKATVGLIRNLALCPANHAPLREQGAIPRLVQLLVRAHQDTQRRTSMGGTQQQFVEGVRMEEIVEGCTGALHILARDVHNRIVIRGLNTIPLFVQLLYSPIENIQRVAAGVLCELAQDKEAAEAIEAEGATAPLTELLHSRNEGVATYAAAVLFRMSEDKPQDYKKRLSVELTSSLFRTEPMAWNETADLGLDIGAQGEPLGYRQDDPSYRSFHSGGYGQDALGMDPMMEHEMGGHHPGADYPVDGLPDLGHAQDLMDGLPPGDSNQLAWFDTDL
- protocol_summary: Fluorescence polarization IC50 (beta-catenin / 5FAM-TCF4 10-53 competition)
- Type: binding
- cond: fluorescence polarization; read-out: beta-Catenin FP IC50
On this scale, pIC50 is minus log10 of a concentration expressed in M (mol/L).

CC(=O)N1CCC[C@]12CC=CCCCC1(CCCC=CCCCOC(=O)N3CC[C@@](C(=O)N[C@@H](Cc4ccsc4)C(=O)N[C@@H](Cc4csc5ccccc45)C(=O)N[C@@H](CCC(N)=O)C(N)=O)(C3)NC(=O)[C@H](CC(N)=O)NC(=O)[C@H](Cc3ccccc3)NC(=O)[C@H](C)NC(=O)[C@H](C)NC(=O)[C@H](CC(=O)O)NC(=O)[C@H](CC(N)=O)NC1=O)NC(=O)[C@H](CC(C)(C)C)NC(=O)[C@H](CC(=O)O)NC2=O (some centres unmarked) [I-1206] ... 7.49

pIC50 for CC(=O)N1CCC[C@]12CC=CCCCC1(CCCC=CCCCOC(=O)N3CC[C@@](C(=O)N[C@@H](Cc4ccsc4)C(=O)N[C@@H](Cc4csc5ccccc45)C(=O)N[C@@H](CCC(N)=O)C(N)=O)(C3)NC(=O)[C@H](CC(N)=O)NC(=O)[C@H](Cc3cccc(C(=O)O)c3)NC(=O)[C@H](C)NC(=O)[C@H](C)NC(=O)[C@H](Cc3c[nH]cn3)NC(=O)[C@H](CC(=O)O)NC1=O)NC(=O)[C@H](CC(C)(C)C)NC(=O)[C@H](CC(=O)O)NC2=O (some centres unmarked) [I-2118] ? 7.68

pIC50 for CC(=O)N1CCC[C@]12CC=CCCCC1(CCCC=CCCCOC(=O)N3CC[C@@](C(=O)N[C@@H](Cc4ccccc4Cl)C(=O)N[C@@H](Cc4csc5ccccc45)C(=O)N[C@@H](CC(N)=O)C(N)=O)(C3)NC(=O)[C@H](Cc3ccccc3)NC(=O)[C@H](Cc3ccccc3)NC(=O)[C@H](C)NC(=O)[C@H](C)NC(=O)[C@H](Cc3cccc(C(=O)O)c3)NC(=O)[C@H](CC(=O)O)NC1=O)NC(=O)[C@H](CC(C)(C)C)NC(=O)[C@H](CC(=O)O)NC2=O (some centres unmarked) [I-2037] ? 7.77

pIC50 for CC(=O)N1CCC[C@]12CC=CCCCC1(CCCC=CCCCOC(=O)N3CC[C@@](C(=O)N[C@@H](Cc4ccccc4C(F)(F)F)C(=O)N[C@H](C(=O)N[C@@H](C)C(N)=O)[C@H](C)c4ccc5ccccc5c4)(C3)NC(=O)[C@H](CC(C)C)NC(=O)[C@H](Cc3ccccc3)NC(=O)[C@H](C)NC(=O)[C@H](CCC(N)=O)NC(=O)[C@H](Cc3cccc(C(=O)O)c3)NC(=O)[C@H](CC(=O)O)NC1=O)NC(=O)[C@H](CC(C)(C)C)NC(=O)[C@H](CC(=O)O)NC2=O (some centres unmarked) [I-2463] ? 7.33

pIC50 for CC(C)C[C@@H]1NC(=O)[C@H](Cc2ccccc2)NC(=O)[C@H](C)NC(=O)[C@H](C)NC(=O)[C@H](CN(CC(=O)O)CC(F)(F)F)NC(=O)[C@H](CC(=O)O)NC(=O)C2(CCCCCCCCOC(=O)N3CC[C@@](C(=O)N[C@@H](Cc4ccsc4)C(=O)N[C@@H](Cc4csc5ccccc45)C(=O)N[C@@H](CCC(N)=O)C(N)=O)(C3)NC1=O)CCCCCCOc1cccc(c1)CC(=O)N1CCC[C@H]1C(=O)N[C@@H](CC(=O)O)C(=O)N[C@@H](CC(C)(C)C)C(=O)N2 (some centres unmarked) [I-2405] ? 6.25
